- tested-on: PKC epsilon (Homo sapiens, UniProt Q02156)
- Construct: purchased Invitrogen P2282
- Sequence (Q02156 whole entry): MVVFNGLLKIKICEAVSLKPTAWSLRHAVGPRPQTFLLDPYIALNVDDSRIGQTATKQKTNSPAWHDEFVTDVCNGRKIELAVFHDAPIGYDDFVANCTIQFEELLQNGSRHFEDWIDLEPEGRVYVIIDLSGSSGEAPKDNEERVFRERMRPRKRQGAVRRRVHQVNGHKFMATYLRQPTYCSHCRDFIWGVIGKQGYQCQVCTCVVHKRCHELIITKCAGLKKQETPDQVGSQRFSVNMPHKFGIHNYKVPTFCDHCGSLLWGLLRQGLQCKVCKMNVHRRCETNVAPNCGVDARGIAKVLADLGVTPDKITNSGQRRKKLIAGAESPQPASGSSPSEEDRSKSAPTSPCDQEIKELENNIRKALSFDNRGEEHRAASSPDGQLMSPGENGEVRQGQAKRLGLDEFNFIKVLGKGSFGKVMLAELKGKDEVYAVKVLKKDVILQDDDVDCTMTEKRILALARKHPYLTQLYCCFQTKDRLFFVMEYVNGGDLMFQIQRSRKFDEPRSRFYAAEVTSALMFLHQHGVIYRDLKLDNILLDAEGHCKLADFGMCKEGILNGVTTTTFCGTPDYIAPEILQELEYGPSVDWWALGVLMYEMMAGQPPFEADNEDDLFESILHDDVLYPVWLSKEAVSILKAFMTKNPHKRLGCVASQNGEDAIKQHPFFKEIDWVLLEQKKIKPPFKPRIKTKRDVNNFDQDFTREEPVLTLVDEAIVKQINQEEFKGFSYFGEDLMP
- assay-summary: Biochemical assay for PKC epsilon (fluorescence polarization, Protein Kinase C Assay Kit, Red)
- condition-notes: Table 2, compounds of Formula XIII; read-out: IC50 μM PKCε
# IC50 values compiled below

Lookup: Look up IC50 for this molecule: NC(CNC(=O)CCc1ccccc1)c1ccc(C(=O)Nc2ccncc2)cc1 (centres unmarked) [Compound 162]
Found: 0.5 to 5 µM

Lookup: Entry NC(CNC(=O)c1ccc2ncccc2c1)c1ccc(C(=O)Nc2ccncc2)cc1 (centres unmarked) [Compound 114] : reported IC50 = ?
Found: 5 to 50 µM

Lookup: Consider the molecule shown here: Cc1ccccc1C(=O)NCC(N)c1ccc(C(=O)Nc2ccncc2)cc1 (centres unmarked) [Compound 84] What is its recorded IC50?
Found: 5 to 50 µM

Lookup: For the molecule NC(CNC(=O)COc1ccc(F)cc1)c1ccc(C(=O)Nc2ccncc2)cc1 (centres unmarked) [Compound 157] , what IC50 is on record?
Found: 0.05 to 0.5 µM

Lookup: Fill in: IC50 of NC(CNC(=O)C1CC1)c1ccc(C(=O)Nc2ccncc2)cc1 (centres unmarked) [Compound 39] is ___
Found: 0.5 to 5 µM

Lookup: GET /values?readout=IC50&item= NC(CNC(=O)c1ccc(Cl)cc1)c1ccc(C(=O)Nc2ccncc2)cc1 (centres unmarked) [Compound 90]
Found: 5 to 50 µM

Lookup: Fill in the blank: the reported IC50 of NC(CNC(=O)Cc1ccc(Cl)cc1F)c1ccc(C(=O)Nc2ccncc2)cc1 (centres unmarked) [Compound 333] is ____.
Found: 0.05 to 0.5 µM

Lookup: May I ask what IC50 has been recorded for NC(CNC(=O)c1cccc(Cn2cccn2)c1)c1ccc(C(=O)Nc2ccncc2)cc1 (centres unmarked) [Compound 103] ?
Found: 0.5 to 5 µM

Lookup: Consider the molecule shown here: NC(CNC(=O)c1cc2cc(F)ccc2[nH]1)c1ccc(C(=O)Nc2ccncc2)cc1 (centres unmarked) [Compound 129] What is its recorded IC50?
Found: 5 to 50 µM

Lookup: Record request: IC50 value, item NC(CNC(=O)C1(c2ccc(F)cc2)CCCC1)c1ccc(C(=O)Nc2ccncc2)cc1 (centres unmarked) [Compound 336]
Found: < 0.05 µM

Lookup: Sample NC(CNC(=O)CCc1cccnc1)c1ccc(C(=O)Nc2ccncc2)cc1 (centres unmarked) [Compound 166] — what was its IC50?
Found: 5 to 50 µM

Lookup: Return reported IC50; argument: NC(CNC(=O)c1ccc(F)cc1)c1ccc(C(=O)Nc2ccncc2)cc1 (centres unmarked) [Compound 93]
Found: 0.5 to 5 µM

Lookup: Entry under review: NC(CNC(=O)c1ccccc1Oc1ccccc1)c1ccc(C(=O)Nc2ccncc2)cc1 (centres unmarked) [Compound 76] . Reported IC50?
Found: 0.5 to 5 µM

Lookup: I have this molecule here, CC(C)(C(=O)NCC(N)c1ccc(C(=O)Nc2ccncc2)cc1)c1ccc(F)cc1Cl (centres unmarked) [Compound 386] , and I need its recorded IC50.
Found: < 0.05 µM

====

Measured IC50, listed per entry.
- tested-on: PKC epsilon (Homo sapiens, UniProt Q02156)
- Construct: purchased Invitrogen P2282
- assay-summary: Biochemical assay for PKC epsilon (fluorescence polarization, Protein Kinase C Assay Kit, Red)
- condition-notes: Table 2, compounds of Formula XIII; read-out: IC50 μM PKCε

Check out these entries, answers already filled in.
molecule="NC(CNC(=O)C1CCC1)c1ccc(C(=O)Nc2ccncc2)cc1 (stereo not shown)" result="0.5 to 5 µM"
molecule="NC(CNC(=O)c1ccc(Oc2ccccc2)cc1)c1ccc(C(=O)Nc2ccncc2)cc1 (stereo not shown)" result="5 to 50 µM"
molecule="CC1=C(C(=O)NCC(N)c2ccc(C(=O)Nc3ccncc3)cc2)Cc2ccccc21 (stereo not shown)" result="0.5 to 5 µM"

Lookup: # IC50 lookup, item NC(CNC(=O)C1CCc2ccccc21)c1ccc(C(=O)Nc2ccncc2)cc1 (stereo not shown)
Found: 0.05 to 0.5 µM
